# target desc: CYP2C9 (Homo sapiens, UniProt P11712)
# Construct: purchased Invitrogen 2859; host or cells: insect cells infected with baculovirus (microsomes)
# Sequence (P11712 whole entry): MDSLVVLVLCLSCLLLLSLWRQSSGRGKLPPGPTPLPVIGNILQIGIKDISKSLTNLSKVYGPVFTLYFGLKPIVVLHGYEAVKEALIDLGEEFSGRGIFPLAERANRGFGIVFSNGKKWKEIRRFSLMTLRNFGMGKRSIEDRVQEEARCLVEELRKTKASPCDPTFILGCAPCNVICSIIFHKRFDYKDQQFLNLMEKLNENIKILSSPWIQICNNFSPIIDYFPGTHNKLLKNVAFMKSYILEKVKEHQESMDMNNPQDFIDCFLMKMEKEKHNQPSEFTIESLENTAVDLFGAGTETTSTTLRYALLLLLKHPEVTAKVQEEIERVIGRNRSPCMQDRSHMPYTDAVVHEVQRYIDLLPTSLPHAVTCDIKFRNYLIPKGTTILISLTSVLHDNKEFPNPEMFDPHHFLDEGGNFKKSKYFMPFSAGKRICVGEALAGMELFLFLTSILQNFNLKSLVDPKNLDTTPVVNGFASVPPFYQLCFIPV
# assay name: Biological Test Example 7: CYP2C9 inhibition (naproxen O-demethylation)
# Format: in vitro ADME
In this section we review reported IC50 values for a set of compounds.
endpoint name: IC50 (µM)

compound: C[C@@H](c1ccc(-c2cnc(C(=O)NC(C)(C)C)nc2)cc1)N1CC[C@](CC(C)(C)O)(c2ccccc2)OC1=O
target desc: CYP2C9 (Homo sapiens, UniProt P11712)
lt gt eq: =
measurement: 17.8

compound: C[C@@H](c1ccc(-c2ccc(C(=O)N(C)C)nc2)cc1)N1CC[C@](CC(C)(C)O)(c2ccccc2)OC1=O
target desc: CYP2C9 (Homo sapiens, UniProt P11712)
lt gt eq: =
measurement: 48.6

compound: C[C@@H](c1ccc(-c2ccc(C#N)cn2)cc1)N1CC[C@](CC(C)(C)O)(c2ccc(F)cc2)OC1=O
target desc: CYP2C9 (Homo sapiens, UniProt P11712)
lt gt eq: >
measurement: 50

compound: C[C@@H](c1ccc(-c2cncs2)cc1)N1CC[C@](CC(C)(C)O)(c2ccccc2)OC1=O
target desc: CYP2C9 (Homo sapiens, UniProt P11712)
lt gt eq: =
measurement: 9.2

compound: C[C@@H](c1ccc(-c2ccc(C#N)cn2)cc1)N1CC[C@](CC(C)(C)O)(c2ccccc2)OC1=O
target desc: CYP2C9 (Homo sapiens, UniProt P11712)
lt gt eq: =
measurement: 22.2

compound: C[C@@H](c1ccc(-c2ccc(C(=O)N(C)C)cn2)cc1)N1CC[C@](CC(C)(C)O)(c2ccccc2)OC1=O
target desc: CYP2C9 (Homo sapiens, UniProt P11712)
lt gt eq: >
measurement: 50

compound: C[C@@H](c1ccc(-c2cc(S(C)(=O)=O)ccn2)cc1)N1CC[C@](CC(C)(C)O)(c2ccccc2)OC1=O
target desc: CYP2C9 (Homo sapiens, UniProt P11712)
lt gt eq: =
measurement: 30

compound: Cc1nccc(-c2ccc([C@H](C)N3CC[C@](CC(C)(C)O)(c4ccccc4)OC3=O)cc2)n1
target desc: CYP2C9 (Homo sapiens, UniProt P11712)
lt gt eq: =
measurement: 44.4

compound: C[C@@H](c1ccc(-c2cncc([S+](C)[O-])c2)cc1)N1CC[C@](CC(C)(C)O)(c2ccccc2)OC1=O (some centres unmarked)
target desc: CYP2C9 (Homo sapiens, UniProt P11712)
lt gt eq: >
measurement: 50

compound: Cc1nc(-c2ccc([C@H](C)N3CC[C@](CC(C)(C)O)(c4ccccc4)OC3=O)cc2)sc1C
target desc: CYP2C9 (Homo sapiens, UniProt P11712)
lt gt eq: =
measurement: 5.6

compound: Cc1ncc(-c2ccc([C@H](C)N3CC[C@](CC(C)(C)O)(c4ccccc4)OC3=O)cc2)s1
target desc: CYP2C9 (Homo sapiens, UniProt P11712)
lt gt eq: =
measurement: 9.2

compound: CNC(=O)c1ccc(-c2ccc([C@H](C)N3CC[C@](CC(C)(C)O)(c4ccccc4)OC3=O)cc2)nc1
target desc: CYP2C9 (Homo sapiens, UniProt P11712)
lt gt eq: =
measurement: 28.8

compound: C[C@@H](c1ccc(-c2nccs2)cc1)N1CC[C@](CC(C)(C)O)(c2ccccc2)OC1=O
target desc: CYP2C9 (Homo sapiens, UniProt P11712)
lt gt eq: =
measurement: 7.8

compound: C[C@@H](c1ccc(-c2cncc(S(C)(=O)=O)c2)cc1)N1CC[C@](CC(C)(C)O)(c2ccccc2)OC1=O
target desc: CYP2C9 (Homo sapiens, UniProt P11712)
lt gt eq: =
measurement: 21.2

* * *

In this section we review reported IC50 values for a set of compounds.
# target desc: 11β-HSD1 (Homo sapiens, UniProt P28845)
# Sequence (P28845 whole entry): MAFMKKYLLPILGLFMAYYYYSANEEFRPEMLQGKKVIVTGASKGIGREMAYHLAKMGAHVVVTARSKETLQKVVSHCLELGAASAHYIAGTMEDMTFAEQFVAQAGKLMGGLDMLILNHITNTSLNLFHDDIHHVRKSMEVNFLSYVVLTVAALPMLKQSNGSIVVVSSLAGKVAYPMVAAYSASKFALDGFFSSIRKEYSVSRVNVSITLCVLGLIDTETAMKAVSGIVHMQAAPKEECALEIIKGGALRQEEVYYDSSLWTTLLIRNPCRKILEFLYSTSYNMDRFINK
# assay name: biochemical
# condition summary: Biological Test Example 1 IC50 (nM)
endpoint name: IC50 (nM)

structure smiles: Cc1cc(-c2ccc([C@H](C)N3CC[C@](CCCNS(C)(=O)=O)(c4ccc(F)cc4)OC3=O)cc2)ccn1
endpoint name: IC50
measurement: 1
--
structure smiles: Cc1cc(-c2ccc([C@H](C)N3CC[C@](CC4(O)CC4)(c4ccc(F)cc4)OC3=O)cc2)ccn1
endpoint name: IC50
measurement: 1
--
structure smiles: C[C@@H](c1ccc(-c2cnc(C#N)cn2)cc1)N1CC[C@](CC(C)(C)O)(c2ccc(F)cc2)OC1=O
endpoint name: IC50
measurement: 1.7
--
structure smiles: Cc1cn(-c2ncc(-c3ccc([C@H](C)N4CC[C@](CC(C)(C)O)(c5ccccc5)OC4=O)cc3)cn2)c(C)n1
endpoint name: IC50
measurement: 1.7
--
structure smiles: CNC(=O)c1cncc(-c2ccc([C@H](C)N3CC[C@](CCCO)(c4ccc(F)cc4)OC3=O)cc2)c1
endpoint name: IC50
measurement: 46.9
--
structure smiles: C=CC[C@]1(c2ccc(F)cc2)CCN([C@@H](C)c2ccc(-c3cncc(Cl)c3)cc2)C(=O)O1
endpoint name: IC50
measurement: 1
--
structure smiles: C=CC[C@]1(c2ccc(F)cc2)CCN([C@@H](C)c2ccc(-c3nnc(C)s3)cc2)C(=O)O1
endpoint name: IC50
measurement: 5.2

* * *

# target desc: 11β-HSD1 (Homo sapiens, UniProt P28845)
# assay name: Biological Test Example 4: microsomal 11β-HSD1 in the presence of 50% human plasma
In this section we review reported IC50 values for a set of compounds.

structure smiles: Cc1cccc(-c2ccc([C@H](C)N3CC[C@](CCCO)(c4ccc(F)cc4)OC3=O)cc2)n1
endpoint unit: nM
IC50: 22.6
//
structure smiles: C[C@@H](c1ccc(-c2ccc(C(N)=O)cn2)cc1)N1CC[C@](CCCO)(c2ccccc2)OC1=O
endpoint unit: nM
IC50: 6.8
//
structure smiles: C[C@@H](c1ccc(-c2cccnc2)cc1)N1CC[C@](CCO)(c2ccc(F)cc2)OC1=O
endpoint unit: nM
IC50: 6.1
//
structure smiles: C[C@@H](c1ccc(-c2cccnc2)cc1)N1CC[C@](CCC(N)=O)(c2ccc(F)cc2)OC1=O
endpoint unit: nM
IC50: 11

* * *

# target desc: 11β-HSD1 (Homo sapiens)
# assay name: biochemical
# condition summary: Biological Test Example 1 IC50 (nM)

structure smiles: C[C@@H](c1ccc(-c2cnccn2)cc1)N1CC[C@](CC(C)(C)O)(c2ccccc2)OC1=O
endpoint unit: nM
lt gt eq: =
IC50: 2.5

structure smiles: C[C@@H](c1ccc(-c2cccnc2)cc1)N1CC[C@](CCO)(c2ccc(F)cc2)OC1=O
endpoint unit: nM
lt gt eq: =
IC50: 2.5

structure smiles: COc1cncc(-c2ccc([C@H](C)N3CC[C@](CCCO)(c4ccc(F)cc4)OC3=O)cc2)c1
endpoint unit: nM
lt gt eq: =
IC50: 1.3

structure smiles: Cc1nccc(-c2ccc([C@H](C)N3CC[C@](CCCO)(c4ccc(F)cc4)OC3=O)cc2)n1
endpoint unit: nM
lt gt eq: =
IC50: 1.5

structure smiles: C[C@@H](c1ccc(-c2cnccn2)cc1)N1CC[C@](CCCO)(c2ccc(F)cc2)OC1=O
endpoint unit: nM
lt gt eq: =
IC50: 1.8

structure smiles: Cc1ncc(-c2ccc([C@H](C)N3CC[C@](CCc4nnc(C)o4)(c4ccccc4)OC3=O)cc2)cn1
endpoint unit: nM
lt gt eq: >
IC50: 100

* * *

In this section we review reported inhibition at 0.1 µM values for a set of compounds.
# target desc: 11β-HSD1 (Homo sapiens, UniProt P28845)
# assay name: biochemical
# condition summary: read-out: Average % inhibition at 100 nM
endpoint name: inhibition at 0.1 µM (%)

structure smiles: C[C@@H](c1ccc(-c2cccnc2)cc1)N1CC[C@](CCO)(c2ccc(F)cc2)OC1=O
target desc: 11β-HSD1 (Homo sapiens, UniProt P28845)
endpoint name: inhibition at 0.1 µM
endpoint unit: %
measurement: 94.3
--
structure smiles: Cc1nc(C)c(-c2ccc([C@H](C)N3CC[C@](CCC(N)=O)(c4ccc(F)cc4)OC3=O)cc2)s1
target desc: 11β-HSD1 (Homo sapiens, UniProt P28845)
endpoint name: inhibition at 0.1 µM
endpoint unit: %
measurement: 93.3
--
structure smiles: C[C@@H](c1ccc(-c2cc[nH]n2)cc1)N1CC[C@](CCCO)(c2ccccc2)OC1=O
target desc: 11β-HSD1 (Homo sapiens, UniProt P28845)
endpoint name: inhibition at 0.1 µM
endpoint unit: %
measurement: 96.7
--
structure smiles: Cc1cc(-c2ccc([C@H](C)N3CC[C@](CCCNS(C)(=O)=O)(c4ccc(F)cc4)OC3=O)cc2)ccn1
target desc: 11β-HSD1 (Homo sapiens, UniProt P28845)
endpoint name: inhibition at 0.1 µM
endpoint unit: %
measurement: 96
--
structure smiles: Cc1cc(-c2ccc([C@H](C)N3CC[C@](CCC(C)(C)O)(c4ccc(F)cc4)OC3=O)cc2)ccn1
target desc: 11β-HSD1 (Homo sapiens, UniProt P28845)
endpoint name: inhibition at 0.1 µM
endpoint unit: %
measurement: 76.9
--
structure smiles: C[C@@H](c1ccc(-c2ccc(C(=O)NC(C)(C)C)cn2)cc1)N1CC[C@](CC(C)(C)O)(c2ccccc2)OC1=O
target desc: 11β-HSD1 (Homo sapiens, UniProt P28845)
endpoint name: inhibition at 0.1 µM
endpoint unit: %
measurement: 90.3
--
structure smiles: CCOc1cc(-c2ccc([C@H](C)N3CC[C@](CC(C)(C)O)(c4ccccc4)OC3=O)cc2)cc(C)n1
target desc: 11β-HSD1 (Homo sapiens, UniProt P28845)
endpoint name: inhibition at 0.1 µM
endpoint unit: %
measurement: 87.2
--
structure smiles: CCOc1ncc(-c2ccc([C@H](C)N3CC[C@](CC(C)(C)O)(c4ccccc4)OC3=O)cc2)cc1C
target desc: 11β-HSD1 (Homo sapiens, UniProt P28845)
endpoint name: inhibition at 0.1 µM
endpoint unit: %
measurement: 95
--
structure smiles: Cc1cc(-c2ccc([C@H](C)N3CC[C@](CCCN4CCCC4=O)(c4ccccc4)OC3=O)cc2)ccn1
target desc: 11β-HSD1 (Homo sapiens, UniProt P28845)
endpoint name: inhibition at 0.1 µM
endpoint unit: %
measurement: 88
--
structure smiles: Cc1nc(C)c(-c2ccc([C@H](C)N3CC[C@](CCCO)(c4ccc(F)cc4)OC3=O)cc2)s1
target desc: 11β-HSD1 (Homo sapiens, UniProt P28845)
endpoint name: inhibition at 0.1 µM
endpoint unit: %
measurement: 94.7
--
structure smiles: C[C@@H](c1ccc(-c2cccc(N(C)C)n2)cc1)N1CC[C@](CC(C)(C)O)(c2ccccc2)OC1=O
target desc: 11β-HSD1 (Homo sapiens, UniProt P28845)
endpoint name: inhibition at 0.1 µM
endpoint unit: %
measurement: 98.1

Measured values drawn from patent US8569292B2 for this set.
